# credit: ChEMBL document CHEMBL2413047

- study-target: Phosphatidylinositol 4,5-bisphosphate 3-kinase catalytic subunit delta isoform (Homo sapiens)
- Sequence (O00329 whole entry, canonical isoform): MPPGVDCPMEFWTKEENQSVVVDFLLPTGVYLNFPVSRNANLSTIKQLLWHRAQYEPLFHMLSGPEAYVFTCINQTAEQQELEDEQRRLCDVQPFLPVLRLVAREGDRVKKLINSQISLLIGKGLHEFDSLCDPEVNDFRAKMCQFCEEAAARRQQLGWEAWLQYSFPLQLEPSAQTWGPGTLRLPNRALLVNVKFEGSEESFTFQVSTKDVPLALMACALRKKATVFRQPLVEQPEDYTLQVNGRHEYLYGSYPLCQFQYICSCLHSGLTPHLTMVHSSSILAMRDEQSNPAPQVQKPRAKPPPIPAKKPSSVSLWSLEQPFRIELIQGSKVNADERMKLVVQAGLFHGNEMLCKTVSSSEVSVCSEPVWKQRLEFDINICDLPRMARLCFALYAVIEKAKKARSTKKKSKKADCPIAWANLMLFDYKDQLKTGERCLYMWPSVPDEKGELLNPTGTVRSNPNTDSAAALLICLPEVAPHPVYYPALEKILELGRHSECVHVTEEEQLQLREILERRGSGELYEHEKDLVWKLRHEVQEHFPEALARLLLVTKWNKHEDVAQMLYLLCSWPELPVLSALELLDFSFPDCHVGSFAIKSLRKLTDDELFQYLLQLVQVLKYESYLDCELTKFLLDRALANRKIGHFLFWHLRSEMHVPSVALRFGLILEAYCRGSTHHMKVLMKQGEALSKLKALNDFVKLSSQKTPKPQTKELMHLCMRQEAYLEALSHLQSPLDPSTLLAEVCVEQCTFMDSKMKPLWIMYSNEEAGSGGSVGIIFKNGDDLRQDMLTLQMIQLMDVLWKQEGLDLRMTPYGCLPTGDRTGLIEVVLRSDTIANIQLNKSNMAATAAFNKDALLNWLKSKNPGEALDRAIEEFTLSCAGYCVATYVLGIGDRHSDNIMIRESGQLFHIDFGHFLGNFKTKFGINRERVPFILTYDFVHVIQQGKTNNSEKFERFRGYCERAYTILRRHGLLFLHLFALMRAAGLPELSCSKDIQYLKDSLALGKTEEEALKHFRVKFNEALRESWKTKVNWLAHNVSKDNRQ
- experiment-description: Inhibition of PI3Kdelta (unknown origin) assessed as formation of PIP3 by competitive fluorescence polarization assay
- experimental-context: read-out: Ki(app)
pKi: −log10 of the molar value.
endpoint: pKi

The examples below pair each entry with its known result.
compound-smiles | measured-value
Cn1c(CN2CCC(C(C)(C)O)CC2)nc2c(N3CCOCC3)nc(-c3cccc4[nH]ncc34)nc21 | 8.64
CCc1nc2ccccc2n1-c1nc(N2CCOCC2)c2nc(N(C)C3CN(C4CCS(=O)(=O)CC4)C3)n(C)c2n1 | 9.23

a. CCc1nc2ccccc2n1-c1nc(N2CCOCC2)c2sc(C(=O)N3CCN(C(C)(C)C(N)=O)CC3)c(C)c2n1
b. CCc1nc2ccccc2n1-c1nc(N2CCOCC2)c2nc(C(=O)N3CCC(C(C)(C)O)CC3)n(C)c2n1
Form field 'greater pKi' accepts a or b ; which applies? Lab note: record the label of whichever item you select.
b
(b: 8.51, a: 7.90)

P. CC(C)c1nc2ccccc2n1-c1nc(N2CCOCC2)c2nc(OC3CN(C4CCS(=O)(=O)CC4)C3)n(C)c2n1
Q. CC(C)(O)C1CCN(Cc2cc3nc(-c4cccc5[nH]ncc45)nc(N4CCOCC4)c3s2)CC1
R. CCc1nc2ccccc2n1-c1nc(N2CCOCC2)c2nc(CC3CN(C4CCS(=O)(=O)CC4)C3)n(C)c2n1
Order the records by pKi, with each subsequent value no larger than the one before. Answer with the labels in sequence, matching the requested order.
R, P, Q
